Provenance of the data: patent EP4745138A1

Below, each of the compounds is paired with its reported inhibition at 2 µM value.
- target.system: human Cereblon WT GST-tagged protein (Homo sapiens, UniProt Q96SW2)
- Construct: purchased CISBIO 64BDCRBNPEH
- Sequence (Q96SW2 whole entry): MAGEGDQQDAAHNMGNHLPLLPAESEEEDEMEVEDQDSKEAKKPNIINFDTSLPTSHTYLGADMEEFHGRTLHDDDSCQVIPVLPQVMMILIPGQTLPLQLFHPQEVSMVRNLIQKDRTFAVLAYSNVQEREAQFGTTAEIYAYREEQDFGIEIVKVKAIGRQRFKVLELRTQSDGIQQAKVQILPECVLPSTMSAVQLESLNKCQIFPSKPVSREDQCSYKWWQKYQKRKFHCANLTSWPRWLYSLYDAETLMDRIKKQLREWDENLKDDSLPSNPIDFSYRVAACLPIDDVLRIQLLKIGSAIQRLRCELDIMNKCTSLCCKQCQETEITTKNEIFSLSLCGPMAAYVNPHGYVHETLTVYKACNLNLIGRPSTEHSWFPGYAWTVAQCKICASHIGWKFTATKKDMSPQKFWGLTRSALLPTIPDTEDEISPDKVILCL
- protocol.description: CRBN-binding affinity, HTRF (CEREBLON BINDING kit)
- setup.conditions: read-out: Inhibition Rate at 2 µM (%)

Answered examples (3):
CCCc1cc(C)[nH]c(=O)c1CNC(=O)c1cc(-c2ccc(N3CCN(Cc4ccc5c(c4)CN(C4CCC(=O)NC4=O)C5=S)CC3)nc2)cc2c1cnn2C(C)C (stereo not drawn) [GT-08885]: 60 to 80%
O=C1CCC(N2Cc3cc(CN4CCN(c5ccc(-c6cc(F)c7c(c6)C(=O)N(C(C(=O)Nc6nccs6)c6ncn8c6CCC8)C7)cc5)CC4)ccc3C2=S)C(=O)N1 (stereo not drawn) [GT-09423]: 60 to 80%
Nc1nc(Nc2ccc(S(=O)(=O)N3CCN(Cc4cccc5c4CN(C4CCC(=O)NC4=O)C5=S)CC3)cc2)nn1C(=O)c1c(F)cccc1F (stereo not drawn) [GT-08795]: 60 to 80%

Q: Kindly state the measured inhibition at 2 µM obtained for COc1cc(N2CCC(N3CCN(Cc4ccc5c(c4)C(=S)N(C4CCC(=O)NC4=O)C5)CC3)CC2)c(C)cc1Nc1ncc(Br)c(Nc2ccc3nccnc3c2P(C)(C)=O)n1 (stereo not drawn) [GT-08762] with human Cereblon WT GST-tagged protein (Homo sapiens, UniProt Q96SW2).
A: 80 to 100%

Q: Lab note: need inhibition at 2 µM with human Cereblon WT GST-tagged protein (Homo sapiens, UniProt Q96SW2) for entry COc1cc2nn(C3CCN(Cc4cccc5c4CN(C4CCC(=O)NC4=O)C5=S)CC3)cc2cc1NC(=O)c1cccc(C(F)(F)F)n1 (stereo not drawn) [GT-04950] , please look it up.
A: 60 to 80%

Q: Look up inhibition at 2 µM with human Cereblon WT GST-tagged protein (Homo sapiens, UniProt Q96SW2) for this compound: COc1cc(N2CCC(N(C)Cc3ccc4c(c3)CN(C3CCC(=O)NC3=O)C4=S)CC2)c(C)cc1Nc1ncc(Br)c(Nc2ccc3nccnc3c2P(C)(C)=O)n1 (stereo not drawn) [GT-08754]
A: 80 to 100%
